Molecular target: T1, human chemokine (C-C motif) receptor 8 (CCR8) (human, UniProt P51685 1-355)
T1 construct: also called hCCR8
T1 sequence (P51685 whole entry): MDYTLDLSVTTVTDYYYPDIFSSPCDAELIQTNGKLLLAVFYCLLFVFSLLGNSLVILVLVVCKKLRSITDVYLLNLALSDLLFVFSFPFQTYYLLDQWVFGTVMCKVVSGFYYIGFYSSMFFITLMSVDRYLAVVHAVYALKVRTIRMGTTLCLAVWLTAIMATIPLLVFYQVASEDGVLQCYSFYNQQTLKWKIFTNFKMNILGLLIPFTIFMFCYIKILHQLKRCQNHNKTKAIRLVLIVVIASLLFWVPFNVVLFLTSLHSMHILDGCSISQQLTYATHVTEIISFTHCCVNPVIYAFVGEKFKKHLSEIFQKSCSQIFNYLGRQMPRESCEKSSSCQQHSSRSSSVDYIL
Test: flow cytometry blocking, human PBMC, CD3+ gate; % cells stained by competitor PE-AB10 after block
Examples of binders with documented % Positive cells follow.
Report the figure in % without appending any unit label.

BINDER	% Positive cells / %
anti-CCR8 monoclonal antibody AB8 (antibody, V domains shown, Hybridoma monoclonal; also called antibody 8; clone 8) VH: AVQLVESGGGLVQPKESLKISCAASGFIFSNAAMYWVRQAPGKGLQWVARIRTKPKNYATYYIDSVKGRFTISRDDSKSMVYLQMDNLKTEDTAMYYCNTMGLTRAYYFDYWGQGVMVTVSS VL: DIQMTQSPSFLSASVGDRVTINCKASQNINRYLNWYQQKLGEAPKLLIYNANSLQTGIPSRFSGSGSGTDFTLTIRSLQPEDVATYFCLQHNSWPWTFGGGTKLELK	0.65
anti-CCR8 monoclonal antibody AB5 (antibody, V domains shown, Hybridoma monoclonal; also called antibody 5; clone 5) VH: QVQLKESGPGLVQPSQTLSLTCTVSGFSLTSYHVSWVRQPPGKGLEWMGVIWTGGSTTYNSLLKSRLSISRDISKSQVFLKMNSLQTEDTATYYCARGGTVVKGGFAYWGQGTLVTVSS VL: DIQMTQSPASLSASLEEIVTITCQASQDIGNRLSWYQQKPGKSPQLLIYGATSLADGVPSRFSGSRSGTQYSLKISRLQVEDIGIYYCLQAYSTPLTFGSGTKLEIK	7.42
anti-CCR8 monoclonal antibody AB7 (antibody, V domains shown, Hybridoma monoclonal; also called antibody 7; clone 7) VH: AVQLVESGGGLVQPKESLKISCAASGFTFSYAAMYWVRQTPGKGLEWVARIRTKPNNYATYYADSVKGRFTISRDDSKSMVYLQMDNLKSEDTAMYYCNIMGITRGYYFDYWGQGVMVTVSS VL: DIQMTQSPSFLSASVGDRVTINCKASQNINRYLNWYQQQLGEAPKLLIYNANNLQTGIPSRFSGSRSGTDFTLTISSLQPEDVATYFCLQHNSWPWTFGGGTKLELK	0.53

With those in mind, consider the next binder.
Entry under review: anti-CCR8 monoclonal antibody AB13 (antibody, V domains shown, Hybridoma monoclonal; also called antibody 13; clone 13) VH: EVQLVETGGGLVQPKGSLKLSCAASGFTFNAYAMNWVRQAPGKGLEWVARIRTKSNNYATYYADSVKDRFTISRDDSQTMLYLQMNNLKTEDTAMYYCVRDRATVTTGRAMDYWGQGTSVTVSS VL: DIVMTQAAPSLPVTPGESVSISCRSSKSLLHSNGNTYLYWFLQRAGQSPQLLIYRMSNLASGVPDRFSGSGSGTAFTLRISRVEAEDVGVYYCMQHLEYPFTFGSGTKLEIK . Reported % Positive cells?
6.19
